target: HSD17B13 enzyme (Homo sapiens); construct: His; made in house; host or cells: E. coli; assay: HSD17B13 activity assay using NADH fluorescence; format: biochemical; conditions: substrate at 30 μM; activity relative to positive control LTB3; NADH production by purified HSD17B13
Outcome Measure: Relative oxidation at 30 μM (%)

compound=CCCCCCCC[C@@H](O)/C=C/C=C\C=C\[C@@H](O)CCCC(=O)O target="HSD17B13 enzyme (Homo sapiens)" reported_result=100
compound=CC/C=C\C[C@H](O)/C=C/C=C\C=C\[C@@H](O)C/C=C\C/C=C\CCC(=O)O target="HSD17B13 enzyme (Homo sapiens)" reported_result=105
compound="CC/C=C\\C[C@H](O)/C=C/C=C\\C=C\\C=C\\[C@@H](O)[C@@H](O)C/C=C\\CCC(=O)O [Resolvin D1]" target="HSD17B13 enzyme (Homo sapiens)" reported_result=135

###

The reader will find reported Relative oxidation at 30 μM (%) values listed item by item below.
Target: HSD17B13 enzyme (Homo sapiens)
Construct: His; made in house; host or cells: E. coli
Sequence (Q7Z5P4 20-300): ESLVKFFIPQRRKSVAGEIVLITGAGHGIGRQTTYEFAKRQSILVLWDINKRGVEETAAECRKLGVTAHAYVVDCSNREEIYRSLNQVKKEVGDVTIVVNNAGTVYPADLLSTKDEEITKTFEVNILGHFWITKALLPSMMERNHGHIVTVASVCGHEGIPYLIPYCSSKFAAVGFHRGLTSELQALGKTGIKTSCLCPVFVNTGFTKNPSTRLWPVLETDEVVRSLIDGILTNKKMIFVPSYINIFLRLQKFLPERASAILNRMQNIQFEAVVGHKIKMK
Assay: HSD17B13 activity assay using NADH fluorescence
Type: biochemical
Details: substrate at 30 μM; activity relative to positive control LTB3; NADH production by purified HSD17B13
Experimental: A fluorescence based HSD17B13 activity assay was used to monitor the fluorescence of NADH, which is generated from NAD+ during the dehydrogenation of the substrate LTB3 or other substrates. […] Generation of NADH was measured as the fluorescence signal (Excitation at 340 nm and Emission at 445 nm) at 3 hours minus the baseline fluorescence at t=0. […] NADH standards were included to allow the conversion of relative fluorescence units into rates of enzyme activity. […]
Outcome Measure: Relative oxidation at 30 μM (%)

compound=CC/C=C\C/C=C\C[C@H](O)\C=C/C=C/C=C/[C@H](O)C/C=C\CCC(=O)O reported_result=22%
compound="CCCCC/C=C\\C[C@@H](O)/C=C/C=C\\C/C=C\\CCCC(=O)O [12(R) HETE]" reported_result=60%
compound="CC[C@@H](O)/C=C/C=C\\C[C@@H](O)/C=C/C=C/C=C\\[C@@H](O)CCCC(=O)O [Resolvin E1]" reported_result=45%
compound="CCCCC[C@@H](O)/C=C/C=C\\CCCCCCCCCC(=O)O [15 (R) HEDE]" reported_result=46%
